System: Escherichia coli
test: Inhibition of Escherichia coli SecA N-terminal fragment EcN68 assessed as phosphate release at 100 uM by Malachite green assay
Calls of active or inactive are those of the source. The rule behind the calls is not given here.
Outcomes: active, inactive

>  <molecule>
N#Cc1c(-c2ccccc2)nc(SCc2ccc(CSC3=NC(=O)C(C#N)C(c4ccccc4)=N3)cc2)[nH]c1=O (centres undefined)

>  <classAssignment>
active

$$$$
>  <molecule>
O=[N+]([O-])c1ccc2oc(SCc3ccc(CSc4nc5cc([N+](=O)[O-])ccc5o4)cc3)nc2c1

>  <classAssignment>
active

$$$$
>  <molecule>
O=[N+]([O-])c1cccc2oc(SCc3ccc(CSc4nc5c([N+](=O)[O-])cccc5o4)cc3)nc12

>  <classAssignment>
active

$$$$
>  <molecule>
Cc1onc(-c2c(Cl)cccc2Cl)c1C(=O)N1CCOCC1

>  <classAssignment>
inactive

$$$$
>  <molecule>
Cc1onc(-c2c(Cl)cccc2Cl)c1C(=O)NCc1ccccc1Br

>  <classAssignment>
inactive

$$$$
>  <molecule>
Cc1onc(-c2c(Cl)cccc2Cl)c1C(=O)NCc1cccc(Br)c1

>  <classAssignment>
inactive

$$$$
>  <molecule>
Clc1ccc2oc(SCc3ccc(CSc4nc5cc(Cl)ccc5o4)cc3)nc2c1

>  <classAssignment>
active

$$$$
>  <molecule>
Cc1cccc(C2=NC(SCc3ccc(CSc4nc(-c5cccc(C)c5)c(C#N)c(=O)[nH]4)cc3)=NC(=O)C2C#N)c1 (centres undefined)

>  <classAssignment>
active

$$$$
>  <molecule>
Clc1ccc2nc(SCc3ccc(CSc4nc5ccc(Cl)cc5s4)cc3)sc2c1

>  <classAssignment>
active

$$$$
>  <molecule>
CC(C)c1ccc(C2=NC(SCc3ccc(CSc4nc(-c5ccc(C(C)C)cc5)c(C#N)c(=O)[nH]4)cc3)=NC(=O)C2C#N)cc1 (centres undefined)

>  <classAssignment>
active

$$$$
>  <molecule>
Cc1cccc(NC(=O)c2c(-c3c(Cl)cccc3Cl)noc2C)c1

>  <classAssignment>
inactive

$$$$
>  <molecule>
Cc1onc(-c2c(Cl)cccc2Cl)c1C(=O)NC1CCCCC1

>  <classAssignment>
inactive

$$$$
>  <molecule>
Cc1onc(-c2c(Cl)cccc2Cl)c1C(=O)Nc1ccccc1F

>  <classAssignment>
inactive

$$$$
>  <molecule>
N#Cc1c(-c2ccc(-c3ccccc3)cc2)nc(SCc2ccc(CSC3=NC(=O)C(C#N)C(c4ccc(-c5ccccc5)cc4)=N3)cc2)[nH]c1=O (centres undefined)

>  <classAssignment>
active

$$$$
>  <molecule>
Cc1cc(NC(=O)c2c(-c3c(Cl)cccc3Cl)noc2C)ccc1Br

>  <classAssignment>
inactive

$$$$
>  <molecule>
Cc1ccccc1NC(=O)c1c(-c2c(Cl)cccc2Cl)noc1C

>  <classAssignment>
inactive

$$$$
>  <molecule>
Cc1ccc(NC(=O)c2c(-c3c(Cl)cccc3Cl)noc2C)c(C)c1

>  <classAssignment>
inactive

$$$$
>  <molecule>
N#Cc1c(-c2cccc3ccccc23)nc(SCc2ccc(CSC3=NC(=O)C(C#N)C(c4cccc5ccccc45)=N3)cc2)[nH]c1=O (centres undefined)

>  <classAssignment>
active

$$$$
>  <molecule>
Cc1onc(-c2c(Cl)cccc2Cl)c1C(=O)Nc1ccc(F)c(Cl)c1

>  <classAssignment>
inactive

$$$$
